# system name: 5-hydroxytryptamine receptor 1A (Rattus norvegicus)
# Sequence (P19327 whole entry): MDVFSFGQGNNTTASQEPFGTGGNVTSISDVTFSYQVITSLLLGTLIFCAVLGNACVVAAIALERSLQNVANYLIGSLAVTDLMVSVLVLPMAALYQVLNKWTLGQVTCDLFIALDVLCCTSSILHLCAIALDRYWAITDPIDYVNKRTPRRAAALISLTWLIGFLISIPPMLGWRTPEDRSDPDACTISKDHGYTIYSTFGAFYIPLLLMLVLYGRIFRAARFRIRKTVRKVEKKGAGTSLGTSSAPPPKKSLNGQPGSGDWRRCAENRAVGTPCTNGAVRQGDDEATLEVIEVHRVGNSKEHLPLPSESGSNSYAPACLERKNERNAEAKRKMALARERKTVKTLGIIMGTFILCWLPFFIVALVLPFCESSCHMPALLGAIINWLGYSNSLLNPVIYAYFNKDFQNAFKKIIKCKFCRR
parameter measured: pIC50
Give bare numbers, as −log10 of the molar value.

smi	pIC50
Clc1ccccc1N1CCN(Cc2cn(-c3ccccc3)c(-c3ccccc3)n2)CC1	6.59
COc1cccc(N2CCN(Cc3cn(-c4ccccc4)c(-c4ccccc4)n3)CC2)c1	6.57

Would you mind listing pIC50 for each of the following compounds?
1. COc1ccccc1N1CCN(Cc2cn(-c3ccc(F)cc3)c(-c3ccc(F)cc3)n2)CC1
2. CCOc1ccccc1N1CCN(Cc2cn(-c3ccccc3)c(-c3ccccc3)n2)CC1
3. Fc1ccc(N2CCN(Cc3cn(-c4ccccc4)c(-c4ccccc4)n3)CC2)cc1

1. 6.77
2. 7.24
3. 6.09

###

UniProt P14842: recorded pIC50 for assorted molecules
Sequence (P14842 whole entry): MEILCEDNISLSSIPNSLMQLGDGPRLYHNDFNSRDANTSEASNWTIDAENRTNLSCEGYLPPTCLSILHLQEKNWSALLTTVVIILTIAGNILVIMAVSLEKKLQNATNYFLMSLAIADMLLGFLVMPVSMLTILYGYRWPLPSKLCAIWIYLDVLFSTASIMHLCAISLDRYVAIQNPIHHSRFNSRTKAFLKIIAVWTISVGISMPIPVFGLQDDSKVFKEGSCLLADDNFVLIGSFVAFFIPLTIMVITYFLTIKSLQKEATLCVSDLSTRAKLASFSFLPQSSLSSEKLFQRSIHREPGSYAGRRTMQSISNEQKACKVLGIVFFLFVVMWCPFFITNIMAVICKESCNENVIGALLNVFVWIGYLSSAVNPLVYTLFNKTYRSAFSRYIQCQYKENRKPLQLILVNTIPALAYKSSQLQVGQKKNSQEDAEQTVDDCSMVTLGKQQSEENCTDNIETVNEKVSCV
One number for each entry, as −log10 of the molar value.

# annotated cases, reported pIC50 shown
smi	pIC50
c1ccc(-c2nc(CN3CCN(c4ccccn4)CC3)cn2-c2ccccc2)cc1	5.70
c1ccc(CN2CCN(Cc3cn(-c4ccccc4)c(-c4ccccc4)n3)CC2)cc1	5.66
COc1ccccc1N1CCN(Cc2cn(-c3ccc(F)cc3)c(-c3ccc(F)cc3)n2)CC1	6.59
Clc1ccc(N2CCN(Cc3cn(-c4ccccc4)c(-c4ccccc4)n3)CC2)cc1	6.50
Clc1cccc(N2CCN(Cc3cn(-c4ccccc4)c(-c4ccccc4)n3)CC2)c1	6.14

Consider the additional molecule presented here.
According to the records, this molecule COc1ccc(N2CCN(Cc3cn(-c4ccccc4)c(-c4ccccc4)n3)CC2)cc1 displays pIC50 of 5.72
